Test: Acute toxicity, oral, number of deaths up to 72 hours
Settings: mouse, in vivo; 800 mg/Kg, oral, male dd mice, up to 72 hours
Value Type: mortality at 72 h (%)
Just the number please, in %, no unit attached.

Need mortality at 72 h, item CC(C(=O)O)c1cc(Cl)c2c(c1)C=CCO2 (stereo not shown) [Compound 4]
30

CC(C(=O)O)c1cc(Cl)c2c(c1)CCC(C)(C)O2 (stereo not shown) [Compound 6] ?
30

CC(C(=O)O)c1cc(Cl)c2c(c1)C=CC(C)(C)O2 (stereo not shown) [Compound 3] ?
0

CC(C(=O)O)c1ccc2c(c1)C=CC(C)(C)O2 (stereo not shown) [Compound 2] ?
0

CC(C(=O)O)c1cc(Cl)c2c(c1)CCCO2 (stereo not shown) [Compound 7, 2-(8-Chlorochroman-6-yl)propionic acid] ?
0

CC(C(=O)O)c1cc(F)c2c(c1)C=CC(C)(C)O2 (stereo not shown) [Compound 1] ?
0

Cc1c(N(C)C)c(=O)n(-c2ccccc2)n1C [Aminopyrine, reference compound] ?
80

* * *

So I've got a bunch of compounds here, and I need their Analgesic effects (modified Haffner method) values.
Test system: pseudopain reactions (dd mice)
Test: Analgesic effects by a modified Haffner method
Type: in vivo
Settings: 50 mg/Kg, oral, with 2 mg/Kg morphine hydrochloride s.c.
Just the number please, in %, no unit attached.

Need Analgesic effects (modified Haffner method), item CC(C(=O)O)c1cc(Cl)c2c(c1)CCC(C)(C)O2 (stereo not shown) [Compound 6]
30

CC(C(=O)O)c1ccc2c(c1)C=CC(C)(C)O2 (stereo not shown) [Compound 2] ?
25

Cc1c(N(C)C)c(=O)n(-c2ccccc2)n1C [Aminopyrine, reference compound] ?
20

CC(C(=O)O)c1cc(Cl)c2c(c1)C=CC(C)(C)O2 (stereo not shown) [Compound 3] ?
20

CC(C(=O)O)c1cc(Cl)c2c(c1)C=CCO2 (stereo not shown) [Compound 4] ?
30

CC(C(=O)O)c1cc(F)c2c(c1)C=CC(C)(C)O2 (stereo not shown) [Compound 1] ?
40

O=C(O)Cc1cc(Cl)c2c(c1)C=CCO2 [Compound 5] ?
35

* * *

Experiment: Acute toxicity, oral, number of deaths up to 72 hours
Conditions: mouse, in vivo, po, 800 mg/kg
Value Type: mortality at 72 h (%)
Just the number please, in %, no unit attached.

Need mortality at 72 h, item CCCCC1C(=O)N(c2ccccc2)N(c2ccccc2)C1=O [Phenylbutazone, reference compound]
60
